Measured Mac AVB6 % Cells Shifted values are reported for all entries that follow.
# Test system: T1, cynomolgus αVβ6 on cells (cynomolgus)
# T1 construct: whole, on cells; also called macaque αVβ6; Mac AVB6
# Test summary: FACS, supernatant, HEK-293 cells transfected with cynomolgus αV and β6
// note: answer is a bare numeric in %

INSERT INTO measurements (binder, numeric_result) VALUES
  ('sc 320 (antibody, V domains shown, Fully human XenoMouse mAb) VH: EVQLVESGGGLVKPGGSLRLSCAASGYTFTNYIMHWVRQAPGKGLEWVSSISISSSYIYYADSVKGRFTISRDNAKNSLYLQMNSLRAEDTAVYYCARDPVPLERRDYYYGMDVWGQGTTVTVSS VL: QSVLTQPPSMSAAPGQKVTISCSGSSSNIGNNYVSWYQQLPGTAPKLLIYDNNKRPSGIPDRFSGSKSGTSATLGITGLQTGDEADYYCGTWDSSLSAGVFGGGTKLTVL', 19);

Attention now turns to another entry.
Specify Mac AVB6 % Cells Shifted for sc 277 (antibody, V domains shown, Fully human XenoMouse mAb) VH: EVQLVQSGAEVKKPGESLKISCKGSGYSFPSYWIGWVRQMPGKGLEWMGIIYPGDSDTRYSPSFQGQVTISADKSISTAYLQWSSLKASDTAMYYCARHPMEDGMDVWGQGTTVTVSS VL: SYELTQPPSVSVSPGQTARITCSGDALPKKYAFWYQQKSGQAPVLVIYDDNKRPSGIPERFSGSSSGTMATLTITGAQVEDEADYYCYSTDSSGHHVFGGGTKLTVL and stop.
35
